target: Ldtfm catalytic domain (LdtfmC442A) (Enterococcus faecium, UniProt Q3Y185, C442A); assay: biochemical
Sequence (Q3Y185 341-466 C442A): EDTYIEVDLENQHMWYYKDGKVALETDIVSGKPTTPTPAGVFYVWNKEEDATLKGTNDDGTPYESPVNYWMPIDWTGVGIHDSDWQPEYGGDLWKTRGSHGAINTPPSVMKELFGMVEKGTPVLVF
Measurement Label: pKd
By convention, pKd is the negative base-10 log of a molar concentration.

Smiles Representation: CO/N=C(\C(=O)N[C@@H]1C(=O)N2C(C(=O)O)=C(CSc3nc(=O)c(=O)[nH]n3C)CS[C@H]12)c1csc(N)n1
Test System: Ldtfm catalytic domain (LdtfmC442A) (Enterococcus faecium, UniProt Q3Y185, C442A)
pKd: 1.36
--
Smiles Representation: C[C@@H](O)[C@H]1C(=O)N2C(C(=O)O)=C(S[C@@H]3CN[C@H](C(=O)Nc4cccc(C(=O)O)c4)C3)[C@H](C)[C@H]12
Test System: Ldtfm catalytic domain (LdtfmC442A) (Enterococcus faecium, UniProt Q3Y185, C442A)
pKd: 1.30

Sample CC1(C)S[C@@H]2[C@H](NC(=O)[C@H](N)c3ccccc3)C(=O)N2[C@H]1C(=O)O ; pKd observed: 1.10
